- target: DNA-dependent protein kinase catalytic subunit (Homo sapiens, UniProt P78527)
- Sequence (P78527 whole entry): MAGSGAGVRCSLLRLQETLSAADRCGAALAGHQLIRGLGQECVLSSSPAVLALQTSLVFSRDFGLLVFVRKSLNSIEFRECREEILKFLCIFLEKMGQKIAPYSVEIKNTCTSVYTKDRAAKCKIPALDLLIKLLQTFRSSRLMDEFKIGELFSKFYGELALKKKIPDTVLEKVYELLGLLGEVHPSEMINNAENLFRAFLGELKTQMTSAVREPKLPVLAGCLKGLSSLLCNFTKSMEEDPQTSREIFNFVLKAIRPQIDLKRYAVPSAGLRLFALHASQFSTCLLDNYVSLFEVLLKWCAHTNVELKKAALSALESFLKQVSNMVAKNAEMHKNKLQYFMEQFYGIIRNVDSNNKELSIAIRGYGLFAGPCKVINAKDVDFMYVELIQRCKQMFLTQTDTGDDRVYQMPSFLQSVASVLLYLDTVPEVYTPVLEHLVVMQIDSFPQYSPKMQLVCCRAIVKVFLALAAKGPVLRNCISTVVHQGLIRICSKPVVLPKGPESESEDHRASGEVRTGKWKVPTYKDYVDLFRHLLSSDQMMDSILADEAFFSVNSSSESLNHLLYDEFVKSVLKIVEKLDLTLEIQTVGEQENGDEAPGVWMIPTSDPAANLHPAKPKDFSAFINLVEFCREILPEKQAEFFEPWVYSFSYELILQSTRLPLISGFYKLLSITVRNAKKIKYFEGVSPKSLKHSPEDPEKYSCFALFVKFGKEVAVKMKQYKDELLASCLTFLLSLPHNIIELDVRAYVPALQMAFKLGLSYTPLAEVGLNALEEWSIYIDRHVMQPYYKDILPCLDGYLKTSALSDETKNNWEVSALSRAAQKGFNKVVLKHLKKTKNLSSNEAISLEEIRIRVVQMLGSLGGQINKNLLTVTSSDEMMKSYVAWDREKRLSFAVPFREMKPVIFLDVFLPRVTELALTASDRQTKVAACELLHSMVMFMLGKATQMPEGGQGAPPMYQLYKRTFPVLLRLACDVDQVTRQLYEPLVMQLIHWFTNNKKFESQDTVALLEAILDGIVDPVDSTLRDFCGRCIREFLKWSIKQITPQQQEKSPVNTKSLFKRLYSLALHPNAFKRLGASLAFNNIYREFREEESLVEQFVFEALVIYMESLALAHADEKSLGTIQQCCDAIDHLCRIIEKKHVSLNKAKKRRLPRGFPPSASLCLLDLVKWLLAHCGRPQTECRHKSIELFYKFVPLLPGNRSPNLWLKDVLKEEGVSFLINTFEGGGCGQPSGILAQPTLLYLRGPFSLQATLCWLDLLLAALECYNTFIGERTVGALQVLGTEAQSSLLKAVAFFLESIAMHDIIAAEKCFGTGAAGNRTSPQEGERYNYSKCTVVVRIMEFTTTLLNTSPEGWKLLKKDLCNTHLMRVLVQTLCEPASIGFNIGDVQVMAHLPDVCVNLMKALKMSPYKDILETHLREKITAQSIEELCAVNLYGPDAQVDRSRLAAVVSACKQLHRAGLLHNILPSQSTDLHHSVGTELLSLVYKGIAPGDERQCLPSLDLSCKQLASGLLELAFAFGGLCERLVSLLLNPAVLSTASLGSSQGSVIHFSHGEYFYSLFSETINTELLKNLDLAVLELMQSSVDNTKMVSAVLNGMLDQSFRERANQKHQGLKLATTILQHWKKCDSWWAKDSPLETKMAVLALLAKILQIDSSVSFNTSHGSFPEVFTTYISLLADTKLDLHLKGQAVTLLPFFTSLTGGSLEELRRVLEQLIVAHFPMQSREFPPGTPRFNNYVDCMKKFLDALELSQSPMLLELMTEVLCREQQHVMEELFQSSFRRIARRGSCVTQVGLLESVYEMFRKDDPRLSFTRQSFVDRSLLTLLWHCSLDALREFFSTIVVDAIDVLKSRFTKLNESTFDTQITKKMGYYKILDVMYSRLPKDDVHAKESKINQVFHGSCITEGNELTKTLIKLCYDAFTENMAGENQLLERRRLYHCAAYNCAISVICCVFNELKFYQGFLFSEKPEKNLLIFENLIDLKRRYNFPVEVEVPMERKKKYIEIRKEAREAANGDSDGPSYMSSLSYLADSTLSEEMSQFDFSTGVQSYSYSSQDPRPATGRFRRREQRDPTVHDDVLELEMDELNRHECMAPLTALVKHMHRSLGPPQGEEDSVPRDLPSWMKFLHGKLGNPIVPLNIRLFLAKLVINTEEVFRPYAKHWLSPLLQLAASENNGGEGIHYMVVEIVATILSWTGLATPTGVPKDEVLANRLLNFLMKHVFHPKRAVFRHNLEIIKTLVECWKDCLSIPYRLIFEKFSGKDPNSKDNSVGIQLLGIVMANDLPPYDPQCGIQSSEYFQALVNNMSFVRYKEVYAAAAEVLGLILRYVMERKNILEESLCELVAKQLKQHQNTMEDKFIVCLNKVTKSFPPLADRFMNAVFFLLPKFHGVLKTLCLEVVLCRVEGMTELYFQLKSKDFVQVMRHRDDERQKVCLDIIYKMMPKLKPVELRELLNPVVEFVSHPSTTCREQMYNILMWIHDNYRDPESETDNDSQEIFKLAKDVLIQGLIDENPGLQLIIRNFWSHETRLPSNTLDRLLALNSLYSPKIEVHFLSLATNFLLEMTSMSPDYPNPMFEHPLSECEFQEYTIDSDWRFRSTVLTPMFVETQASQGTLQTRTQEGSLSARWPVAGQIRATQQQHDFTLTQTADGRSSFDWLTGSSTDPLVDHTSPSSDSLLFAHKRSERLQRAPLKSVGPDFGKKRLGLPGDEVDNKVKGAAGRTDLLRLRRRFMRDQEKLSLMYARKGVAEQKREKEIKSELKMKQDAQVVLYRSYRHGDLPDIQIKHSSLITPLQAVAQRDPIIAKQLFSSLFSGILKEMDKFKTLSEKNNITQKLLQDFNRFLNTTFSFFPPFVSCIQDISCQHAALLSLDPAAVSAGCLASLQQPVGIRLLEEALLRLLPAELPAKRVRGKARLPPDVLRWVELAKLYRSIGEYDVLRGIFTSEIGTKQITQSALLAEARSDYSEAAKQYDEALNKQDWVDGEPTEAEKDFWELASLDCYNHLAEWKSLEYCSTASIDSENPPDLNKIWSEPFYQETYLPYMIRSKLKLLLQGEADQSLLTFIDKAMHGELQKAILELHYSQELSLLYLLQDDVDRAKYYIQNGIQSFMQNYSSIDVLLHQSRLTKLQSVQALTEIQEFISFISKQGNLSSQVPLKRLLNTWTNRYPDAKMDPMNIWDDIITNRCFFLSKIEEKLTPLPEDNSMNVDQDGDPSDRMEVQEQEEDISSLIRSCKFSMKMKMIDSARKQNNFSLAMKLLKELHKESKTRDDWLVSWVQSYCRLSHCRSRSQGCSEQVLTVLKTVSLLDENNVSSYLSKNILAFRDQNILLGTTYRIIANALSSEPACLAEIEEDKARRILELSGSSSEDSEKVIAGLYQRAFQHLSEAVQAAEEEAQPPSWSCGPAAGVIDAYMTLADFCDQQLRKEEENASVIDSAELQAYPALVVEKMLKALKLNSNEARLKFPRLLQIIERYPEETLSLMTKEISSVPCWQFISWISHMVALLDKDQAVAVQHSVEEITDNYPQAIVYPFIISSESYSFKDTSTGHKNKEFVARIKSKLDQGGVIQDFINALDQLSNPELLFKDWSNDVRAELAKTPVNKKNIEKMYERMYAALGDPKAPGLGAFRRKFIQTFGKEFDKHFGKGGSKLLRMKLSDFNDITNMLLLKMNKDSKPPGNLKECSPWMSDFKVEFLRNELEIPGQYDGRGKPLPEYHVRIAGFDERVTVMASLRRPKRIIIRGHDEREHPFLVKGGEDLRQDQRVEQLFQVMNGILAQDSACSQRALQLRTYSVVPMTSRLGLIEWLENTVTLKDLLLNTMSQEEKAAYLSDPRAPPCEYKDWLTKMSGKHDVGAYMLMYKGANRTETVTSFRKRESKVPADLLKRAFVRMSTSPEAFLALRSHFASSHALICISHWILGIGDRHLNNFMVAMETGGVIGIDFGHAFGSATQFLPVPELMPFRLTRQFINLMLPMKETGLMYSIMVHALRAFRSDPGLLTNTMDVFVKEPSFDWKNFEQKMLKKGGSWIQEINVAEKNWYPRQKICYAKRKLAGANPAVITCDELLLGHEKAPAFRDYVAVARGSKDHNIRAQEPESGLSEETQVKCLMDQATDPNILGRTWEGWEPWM
- experiment-description: Inhibition against DNA-dependent protein kinase receptor at 0.5uM
quantity-name: inhibition (%)

**Q:** Supply reported inhibition belonging to this compound: O=c1cc(N2CCOCC2)oc2ccc(/C=C/c3ccccc3)cc12
**A:** 6

**Q:** Entry O=c1cc(N2CCOCC2)oc2ccc(-c3cc(C(F)(F)F)cc(C(F)(F)F)c3)cc12 needs its inhibition filled in; supply it.
**A:** 13

**Q:** Report inhibition for CC(=O)Nc1cccc(-c2ccc3oc(N4CCOCC4)cc(=O)c3c2)c1
**A:** 37

A = O=c1cc(N2CCOCC2)oc2ccc(-c3ccc(CO)cc3)cc12
B = CC(=O)Nc1cccc(-c2ccc3c(=O)cc(N4CCOCC4)oc3c2)c1
C = O=c1cc(N2CCOCC2)oc2ccc(-c3ccc(OC(F)(F)F)cc3)cc12
D = O=c1cc(N2CCOCC2)oc2ccc(-c3ccccc3OCc3ccccc3)cc12
**Q:** List by increasing inhibition. Write out the labels following the order that was asked for.
**A:** C, B, D, A

A = O=c1cc(N2CCOCC2)oc2ccc(-c3cccc4c3Sc3ccccc3S4)cc12
B = O=c1cc(N2CCOCC2)oc2cc(-c3ccccc3OCc3ccccc3)ccc12
**Q:** Would you kindly point out which of A and B has the smaller inhibition figure? State the label of the item chosen.
**A:** B
(B: 30%, A: 55%)

1 = O=c1cc(N2CCOCC2)oc2cc(-c3cccc(OCc4ccccc4)c3)ccc12
2 = COC(=O)/C=C/c1cccc(-c2ccc3oc(N4CCOCC4)cc(=O)c3c2)c1
**Q:** Which record would sort first by descending inhibition, 1 or 2 ? I would appreciate it if you answered with the label of your choice.
**A:** 2
(2: 76%, 1: 29%)

I = O=c1cc(N2CCOCC2)oc2ccc(-c3csc4ccccc34)cc12
II = O=c1cc(N2CCOCC2)oc2ccc(-c3cccc(OCc4ccccc4)c3)cc12
**Q:** Between the two listed entries I and II , which has its inhibition at the higher number? Select an item and report its label.
**A:** I
(I: 50%, II: 35%)

Source listed as ChEMBL document CHEMBL1141870.
